target: FXR (Homo sapiens); experiment: FXR transactivation (FXR/RXR, hsp27 IR1-luciferase) in HepG2 cells; details: transactivation, agonism; read-out: FXR EC50 Transact
Sequence (Q96RI1 whole entry): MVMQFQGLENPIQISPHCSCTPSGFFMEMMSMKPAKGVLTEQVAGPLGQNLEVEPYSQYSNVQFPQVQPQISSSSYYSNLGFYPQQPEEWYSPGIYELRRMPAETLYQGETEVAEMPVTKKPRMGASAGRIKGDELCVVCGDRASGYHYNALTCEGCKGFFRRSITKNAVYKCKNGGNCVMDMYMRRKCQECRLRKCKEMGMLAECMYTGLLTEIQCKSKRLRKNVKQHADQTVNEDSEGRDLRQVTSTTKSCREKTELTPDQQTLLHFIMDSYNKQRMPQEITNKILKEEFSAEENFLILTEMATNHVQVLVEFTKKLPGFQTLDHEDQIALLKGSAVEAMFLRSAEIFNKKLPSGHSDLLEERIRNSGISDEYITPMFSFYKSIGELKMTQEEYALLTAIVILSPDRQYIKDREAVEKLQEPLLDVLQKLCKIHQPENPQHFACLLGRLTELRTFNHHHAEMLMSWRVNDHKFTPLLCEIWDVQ
Sequence (P19793 whole entry partner): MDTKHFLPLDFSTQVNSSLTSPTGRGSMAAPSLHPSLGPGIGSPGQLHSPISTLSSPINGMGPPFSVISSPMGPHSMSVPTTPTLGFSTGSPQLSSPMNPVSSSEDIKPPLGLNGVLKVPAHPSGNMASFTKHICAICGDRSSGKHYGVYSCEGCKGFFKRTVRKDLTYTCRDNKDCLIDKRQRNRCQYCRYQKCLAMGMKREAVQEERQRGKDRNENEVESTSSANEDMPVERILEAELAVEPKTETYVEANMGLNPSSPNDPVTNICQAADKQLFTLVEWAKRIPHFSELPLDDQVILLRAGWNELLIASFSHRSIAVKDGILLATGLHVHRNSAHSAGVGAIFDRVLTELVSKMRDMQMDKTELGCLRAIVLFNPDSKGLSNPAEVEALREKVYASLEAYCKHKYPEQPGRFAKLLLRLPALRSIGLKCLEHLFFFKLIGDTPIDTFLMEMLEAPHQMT
endpointName: pEC50
Give bare numbers, as −log10 of the molar value.

Input line: Lab note: need pEC50 with FXR (Homo sapiens) for entry CC[C@H]1[C@@H](O)C2C3CC[C@H]([C@H](C)CCO)[C@@]3(C)CCC2[C@@]2(C)CC[C@@H](O)C[C@@H]12 (stereo partly shown) , please look it up.
Output line: 5.52
